# Test system: human K562 cells
# protocol.summary: Human K562 growth inhibition assay
# Type: cell-based
# recorded.conditions: Homo sapiens, K562, 48 h, read-out: Growth inhibition of human K562 cells IC50
Below, each of the compounds is paired with its reported pIC50 value.
The value called pIC50 is obtained by taking minus log10 of the concentration in mol/L.

[[record]]
compound = "CO[C@@H](C(=O)NCCC(c1ccc(F)cc1)c1ccco1)[C@H](O)[C@@H](O)[C@H](O)/C=C/C(C)(C)C (stereo partly shown) [Compound 7]"
measured_number = 4.02

[[record]]
compound = "CO[C@@H](C(=O)NCCOc1c(C)cc(C)cc1C)[C@H](O)[C@@H](O)[C@H](O)/C=C/C(C)(C)C [Compound 10]"
measured_number = 4.42


Now consider the entry below.
*Q* Given the compound CO[C@@H](C(=O)NCCC(c1ccccc1)c1ccco1)[C@H](O)[C@@H](O)[C@H](O)/C=C/C(C)(C)C (stereo partly shown) [Compound 6] , what is its reported pIC50?
*A* 4.10
